Source: the supplement of paper PMC7394473

Listed below: normalized growth rate inhibition value values for each entry.
Test system: U2OS
Test Method Notes: normalized growth rate inhibition value (GR) relative to untreated cells (GR value (dimensionless, 1 = untreated growth)); higher = less growth inhibition
Run Conditions: 1 µM; 72 h

>  <Compound>
O=C(/C=C/c1cccc(S(=O)(=O)Nc2ccccc2)c1)NO [Belinostat]

>  <Test Target>
U2OS

>  <normalized growth rate inhibition value>
-0.0168

$$$$
>  <Compound>
Cc1ccc(C(=O)N(CCCN)[C@@H](c2oc3cc(Cl)ccc3c(=O)c2Cc2ccccc2)C(C)C)cc1

>  <Test Target>
U2OS

>  <normalized growth rate inhibition value>
-0.166

$$$$
>  <Compound>
CC(C)C[C@H](NC(=O)[C@H](Cc1ccccc1)NC(=O)c1cnccn1)B(O)O [Bortezomib]

>  <Test Target>
U2OS

>  <normalized growth rate inhibition value>
-0.874

$$$$
